- experiment-summary: folding stability dG unfold (combined trypsin and chymotrypsin); higher = more stable
readout-kind: folding stability dG unfold (kcal/mol)
Write the answer as a number in kcal/mol, unit excluded.

Exam item: Param item = SAGMPITVDSEVDPETGTTTYTITMPRGPGEPVTVTIPVTYSDDSVTIEVTASPGVDAAEIKALIEKQSSAG [r5_478_JUSTAS] ; retrieve measured folding stability dG unfold.
Marked response: 0.597

Exam item: Param item = SAGGSVEEIAERLAKELAPPDERVEVEVEEIVTDPVVGKIKEVKIKATIYPPDGTTRTVEYTIPYDELSAGG [r13_215_JUSTAS] ; retrieve measured folding stability dG unfold.
Marked response: 0.612

Exam item: Param item = SAGGSAGGSAGKTIYAPYSKIPEVIEELKKKGYEIDSIEKVPNGSYKISFKNKPIEINLGSAGGSAGGSAGG [r17_379_TrMRF] ; retrieve measured folding stability dG unfold.
Marked response: 3.65

Others:
Exam item: Param item = SAGGSAGGKIIINGKEIEPGETITLPNGLKLEVVDGKIKLVVRDEETGEEKEITLSAEELKKLLSAGGSAGG [r6_940_TrROS_Hall] ; retrieve measured folding stability dG unfold.
Marked response: 3.09

Exam item: Param item = SAGGSAGGSAGGMTTVTTLETRPLPDGTTVTREVVTDENGTVVSTTVSRVSPEGVVTAESAGGSAGGSAGGS [r10_1014_JUSTAS] ; retrieve measured folding stability dG unfold.
Marked response: 0.623

Exam item: Param item = SAGGMVLVRIRVDMSPEERKRLEEELRKRVTEVRYLPEDEDVVEVRVSPEALAELPEERITEVELLPSAGGS [r16_328_TrROS_Hall] ; retrieve measured folding stability dG unfold.
Marked response: -0.0298
